- assay explanation: Half life in rat
- Type: ADME, organism-based
- stated conditions: in vivo
Answer false if half-life is under 2 h, and true if it is 2 h or more.

# input Tell me whether half-life is at least 2 h here: O=C(NO)C1(S(=O)(=O)c2ccc(OCCCc3nnnn3-c3ccc(OC(F)(F)F)cc3)cc2)CCOCC1
# output true

# input Please tell me: is the compound O=C(NO)C1(S(=O)(=O)c2ccc(OCCCn3nnc(-c4ccc(OC(F)(F)F)cc4)n3)cc2)CCOCC1 at or over 2 h in terms of half-life?
# output true

# input Decide: is the reported value of half-life for Cc1ccc(-c2nnnn2CCCOc2ccc(S(=O)(=O)C3(C(=O)NO)CCOCC3)cc2)nc1 equal to or greater than 2 h?
# output true

# input Reported half-life at or above 2 h? COCCN1CCC(C(=O)NO)(S(=O)(=O)c2ccc(OCCCn3nnc(-c4ccc(OC(F)(F)F)cc4)n3)cc2)CC1
# output false

# input # check: half-life of COc1ccc(C(=O)NCCCOc2ccc(S(=O)(=O)C3(C(=O)NO)CCOCC3)cc2)cc1 is greater than or equal to 2 h
# output false

# input State whether the measured half-life reaches 2 h, counting equality as reaching it, for CCN1CCC(C(=O)NO)(S(=O)(=O)c2ccc(OCCCc3nc(-c4ccc(OC(F)(F)F)cc4)no3)cc2)CC1
# output true

# input Check this compound for half-life at or above 2 h: COc1ccc(C(=O)N2CCN(c3ccc(S(=O)(=O)C4(C(=O)NO)CCOCC4)cc3)CC2)cc1
# output false

# input Hello, I need to know if O=C(NO)C1(S(=O)(=O)c2ccc(OCCCc3nc(-c4ccc(OC(F)(F)F)cc4)no3)cc2)CCOCC1 has measured half-life not below 2 h. Thanks!
# output false

# input Would you say COCCN1CCC(C(=O)NO)(S(=O)(=O)c2ccc(Oc3ccc(OC(F)(F)F)cc3)cc2)CC1 shows half-life at minimum 2 h?
# output true
